pIC50: −log10 of the molar value. Where a name gives a salt, the structure may show the parent alone.
// each record: one item and its pIC50 for PKC-β2 (Homo sapiens, UniProt P05771)
MEASURED PROPERTY: pIC50

COMPOUND	MEASURED PROPERTY	RECORDED MEASUREMENT
O=C(OCc1ccccc1)OCC1CCCn2cc(c3ccccc32)C2=C(C(=O)NC2=O)c2cn(c3ccccc23)CC1 (stereo not shown) [Example 29]	pIC50	6.10
O=C1NC(=O)C2=C1c1cn(c3ccccc13)CCCC(CNCc1ccccc1)CCn1cc2c2ccccc21 (stereo not shown) [Example 34, trifluoroacetate salt]	pIC50	7.00
O=C1NC(=O)C2=C1c1cn(c3ccccc13)CCC[C@@H](CO)CCn1cc2c2ccccc21 [Example 31r]	pIC50	8.10
NCC1CCn2cc(c3ccccc32)C2=C(C(=O)NC2=O)c2cn(c3ccccc23)CCCO1 (stereo not shown) [Example 9]	pIC50	6.80

Taken from patent US5696108A.
